TARGET ENTITY: Nanoluciferase-BRD9 fusion protein (Homo sapiens (Human), UniProt Q9H8M2)
Sequence (Q9H8M2 whole entry, the tested form may be a part): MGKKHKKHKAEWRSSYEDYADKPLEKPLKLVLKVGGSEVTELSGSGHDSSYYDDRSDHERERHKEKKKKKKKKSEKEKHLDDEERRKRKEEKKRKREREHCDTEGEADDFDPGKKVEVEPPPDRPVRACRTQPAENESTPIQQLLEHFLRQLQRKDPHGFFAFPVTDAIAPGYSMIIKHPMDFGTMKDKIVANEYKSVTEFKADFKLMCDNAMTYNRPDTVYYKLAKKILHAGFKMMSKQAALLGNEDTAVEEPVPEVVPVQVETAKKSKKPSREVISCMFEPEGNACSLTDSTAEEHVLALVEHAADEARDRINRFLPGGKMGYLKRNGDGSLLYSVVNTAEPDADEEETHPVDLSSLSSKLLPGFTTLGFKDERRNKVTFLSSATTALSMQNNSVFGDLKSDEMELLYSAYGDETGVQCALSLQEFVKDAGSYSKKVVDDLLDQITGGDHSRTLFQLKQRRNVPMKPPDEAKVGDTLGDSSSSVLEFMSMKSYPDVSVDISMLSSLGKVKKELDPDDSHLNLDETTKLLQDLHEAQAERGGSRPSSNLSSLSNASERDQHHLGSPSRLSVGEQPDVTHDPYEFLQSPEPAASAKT
PROTOCOL TEXT: SYO1 BRD9 NanoLuc degradation assay
Format: cell-based
MEASUREMENT CONDITIONS: Table 5B; SYO-1 cells expressing 3×FLAG-NLuc-BRD9, 6 hours; read-out: SYO1 BRD9-NanoLuc degradation IC50
REPORTED ENDPOINT: DC50

Example compounds with recorded DC50:
| COMPOUND | DC50 |
| --- | --- |
| COc1cc(-c2cn(C)c(=O)c3cnccc23)cc(OC)c1CN1CC2(C1)CN(C(=O)C#Cc1ccc3c(c1)C(=O)N(C1CCC(=O)NC1=O)C3=O)C2 (stereo not shown) [Compound D185] | < 10 nM |
| COc1cc(-c2cn(C)c(=O)c3cnccc23)cc(OC)c1CN1CC(CC(=O)N2CC3(CC(Oc4ccc5c(c4)C(=O)N(C4CCC(=O)NC4=O)C5=O)C3)C2)C1 (stereo not shown) [Compound D234] | 10 to 100 nM |

Data request: State, in one line, measured DC50 of COc1cc(-c2cn(C)c(=O)c3cnccc23)cc(OC)c1CN1CC2(CCN(CCCC#Cc3ccc4c(c3)C(=O)N(C3CCC(=O)NC3=O)C4=O)C2)C1 (stereo not shown) [Compound D211]
Data returned: < 10 nM

Data request: State, in one line, measured DC50 of COc1cc(-c2cn(C)c(=O)c3cnccc23)cc(OC)c1CN1CC(CC(=O)N2CC3(CCN(c4ccc5c(c4)C(=O)N(C4CCC(=O)NC4=O)C5=O)CC3)C2)C1 (stereo not shown) [Compound D190]
Data returned: 10 to 100 nM

Data request: State, in one line, measured DC50 of COc1cc(-c2cn(C)c(=O)c3cnccc23)cc(OC)c1CN(C)C(=O)CCCCNC1CC12CCN(c1ccc3c(c1)C(=O)N(C1CCC(=O)NC1=O)C3=O)C2 (stereo not shown) [Compound D258]
Data returned: < 10 nM

Data request: State, in one line, measured DC50 of COc1cc(-c2cn(C)c(=O)c3cnccc23)cc(OC)c1CN(C)CCCCN1CCC2(C1)CN(c1ccc3c(c1)C(=O)N(C1CCC(=O)NC1=O)C3=O)C2 (stereo not shown) [Compound D226]
Data returned: < 10 nM

Data request: State, in one line, measured DC50 of COc1cc(-c2ccc(=O)n(C)c2)cc(OC)c1CN1CCN(c2ccc3c(c2)C(=O)N(C2CCC(=O)NC2=O)C3=O)CC1 (stereo not shown) [Compound D344]
Data returned: < 10 nM

Data request: State, in one line, measured DC50 of COc1cc(-c2cn(C)c(=O)c3cnccc23)cc(OC)c1CN1CCC(n2cc(COCCOc3ccc4c(c3)C(=O)N(C3CCC(=O)NC3=O)C4=O)nn2)CC1 (stereo not shown) [Compound D290]
Data returned: < 10 nM

Data request: State, in one line, measured DC50 of COc1cc(-c2cn(C)c(=O)c3cnccc23)cc(OC)c1CN1CC2(CCN(CC#Cc3ccc4c(c3)C(=O)N(C3CCC(=O)NC3=O)C4=O)CC2)C1 (stereo not shown) [Compound D307]
Data returned: < 10 nM

Data request: State, in one line, measured DC50 of COc1cc(-c2cn(C)c(=O)c3cnccc23)cc(OC)c1CN1CC(n2cc(COc3ccc4c(c3)C(=O)N(C3CCC(=O)NC3=O)C4=O)nn2)C1 (stereo not shown) [Compound D297]
Data returned: < 10 nM

Data request: State, in one line, measured DC50 of COc1cc(-c2cn(C)c(=O)c3cnccc23)cc(OC)c1CN1CCC2C(C1)CN2C(=O)CC#Cc1ccc2c(c1)C(=O)N(C1CCC(=O)NC1=O)C2=O (stereo not shown) [Compound D315]
Data returned: < 10 nM

Data request: State, in one line, measured DC50 of COc1cc(-c2cn(C)c(=O)c3cnccc23)cc(OC)c1CN1CCC(n2cc(CCOc3ccc4c(c3)C(=O)N(C3CCC(=O)NC3=O)C4=O)nn2)CC1 (stereo not shown) [Compound D279]
Data returned: < 10 nM

Data request: State, in one line, measured DC50 of C=CCn1cc(-c2cc(OC)c(CN3CC(CN4CCC5(CC4)CN(c4ccc6c(c4)C(=O)N(C4CCC(=O)NC4=O)C6=O)C5)C3)c(OC)c2)cc(C)c1=O (stereo not shown) [Compound D348]
Data returned: < 10 nM

Data request: State, in one line, measured DC50 of COc1cc(-c2cn(C)c(=O)c3cnccc23)cc(OC)c1CN1CCC2(CC1)CCN(C(=O)CC#Cc1ccc3c(c1)C(=O)N(C1CCC(=O)NC1=O)C3=O)C2 (stereo not shown) [Compound D313]
Data returned: < 10 nM

---

TARGET ENTITY: Nanoluciferase-BRD9 fusion protein (Homo sapiens (Human), UniProt Q9H8M2)
PROTOCOL TEXT: SYO1 BRD9 NanoLuc degradation assay
Assay type: cell-based
MEASUREMENT CONDITIONS: Table 5B; SYO-1 cells expressing 3×FLAG-NLuc-BRD9, 6 hours; read-out: SYO1 BRD9-NanoLuc degradation IC50
REPORTED ENDPOINT: DC50

Example molecules with recorded DC50:
| MOLECULE | DC50 |
| --- | --- |
| COc1cc(-c2cn(C)c(=O)c3cnccc23)cc(OC)c1CN1CCC2(CC1)CN(CCCC#Cc1ccc3c(c1)C(=O)N(C1CCC(=O)NC1=O)C3=O)C2 (centres unmarked) | 10 to 100 nM |
| COc1cc(-c2cn(C)c(=O)c3cnncc23)cc(OC)c1CN1CCC(CN2CCC3(CC2)CC(Oc2ccc4c(c2)CN(C2CCC(=O)NC2=O)C4=O)C3)CC1 (centres unmarked) | < 10 nM |
| COc1cc(-c2cn(C)c(=O)c3cnccc23)cc(OC)c1CN(C)CCCCNC1CC2(CCN(c3ccc4c(c3)C(=O)N(C3CCC(=O)NC3=O)C4=O)CC2)C1 (centres unmarked) | < 10 nM |
| COc1cc(-c2cc(C)c(=O)n(C)c2)cc(OC)c1CN1CCC2(CC1)CC(Oc1ccc3c(c1)C(=O)N(C1CCC(=O)NC1=O)C3=O)C2 (centres unmarked) | < 10 nM |
| COc1cc(-c2cn(C)c(=O)c3cnccc23)cc(OC)c1CN1CCC2(CC1)CCN(CCCC#Cc1ccc3c(c1)C(=O)N(C1CCC(=O)NC1=O)C3=O)C2 (centres unmarked) | < 10 nM |
| COc1cc(-c2cn(C)c(=O)c3cnccc23)cc(OC)c1CN1CCC2C(C1)CN2CCCC#Cc1ccc2c(c1)C(=O)N(C1CCC(=O)NC1=O)C2=O (centres unmarked) | < 10 nM |

Data request: Name the recorded DC50 of COc1cc(-c2cn(C)c(=O)c3cnccc23)cc(OC)c1CN1CCC(n2cc(COc3ccc4c(c3)C(=O)N(C3CCC(=O)NC3=O)C4=O)nn2)CC1 (centres unmarked) , assay system Nanoluciferase-BRD9 fusion protein (Homo sapiens (Human), UniProt Q9H8M2).
Data returned: < 10 nM

Data request: Name the recorded DC50 of COc1cc(-c2cn(C)c(=O)c3cnccc23)cc(OC)c1CN1CC(CC(=O)N2CCC3(CCN(c4ccc5c(c4)C(=O)N(C4CCC(=O)NC4=O)C5=O)C3)C2)C1 (centres unmarked) , assay system Nanoluciferase-BRD9 fusion protein (Homo sapiens (Human), UniProt Q9H8M2).
Data returned: 100 to 1000 nM

Data request: Name the recorded DC50 of COc1cc(-c2cn(C)c(=O)c3cnccc23)cc(OC)c1CN(C)CCCn1cc(COc2ccc3c(c2)C(=O)N(C2CCC(=O)NC2=O)C3=O)nn1 (centres unmarked) , assay system Nanoluciferase-BRD9 fusion protein (Homo sapiens (Human), UniProt Q9H8M2).
Data returned: 100 to 1000 nM

Data request: Name the recorded DC50 of COc1cc(-c2cn(C)c(=O)c3cnccc23)cc(OC)c1CN1CC(CC(=O)N[C@@H]2C[C@@]23CCN(c2ccc4c(c2)C(=O)N(C2CCC(=O)NC2=O)C4=O)C3)C1 (some centres unmarked) , assay system Nanoluciferase-BRD9 fusion protein (Homo sapiens (Human), UniProt Q9H8M2).
Data returned: 10 to 100 nM

Data request: Name the recorded DC50 of COc1cc(-c2cn(C)c(=O)c3cnccc23)cc(OC)c1CN1CC2(CCN(C(=O)CC#Cc3ccc4c(c3)C(=O)N(C3CCC(=O)NC3=O)C4=O)CC2)C1 (centres unmarked) , assay system Nanoluciferase-BRD9 fusion protein (Homo sapiens (Human), UniProt Q9H8M2).
Data returned: < 10 nM

---

TARGET ENTITY: Nanoluciferase-BRD9 fusion protein (Homo sapiens (Human))
PROTOCOL TEXT: SYO1 BRD9 NanoLuc degradation assay
Assay type: cell-based
MEASUREMENT CONDITIONS: Table 5A; SYO-1 cells expressing 3×FLAG-NLuc-BRD9, 6 hours
REPORTED ENDPOINT: IC50

Data request: State, in one line, measured IC50 of COc1cc(-c2cn(C)c(=O)c3cnccc23)cc(OC)c1CN(C)C12CC(C(=O)NCCOCCOCCNc3cccc4c3C(=O)N(C3CCC(=O)NC3=O)C4=O)(C1)C2 (centres unmarked)
Data returned: < 10 nM

Entry source: patent US11414416B1
